Test system: MCF-7 cells
Assay Text: MTT cytotoxicity assay, MCF-7
Format: cell-based
Conditions Used: Homo sapiens, MCF7, 48 h, three independent trials, read-out: IC50 (μM) ± SD MCF-7
Parameter: log10 IC50. Scope: all listed entries.
Please note: log10 values; quantity IC50; unit µM.

Notebook entry, MCF-7 cells assay: log10 IC50 of Nc1cc(=O)[nH]n1C(=O)CNC(=O)Cn1nc(Cc2ccccc2)c2ccccc2c1=O [Compound 12d] = ? 0.28

Next:
Notebook entry, MCF-7 cells assay: log10 IC50 of O=C(Cn1nc(Cc2ccccc2)c2ccccc2c1=O)N1CCOCC1 = ? 1.24

Notebook entry, MCF-7 cells assay: log10 IC50 of C=CCNC(=O)CNC(=O)Cn1nc(Cc2ccccc2)c2ccccc2c1=O [Compound 10f] = ? 1.19

Notebook entry, MCF-7 cells assay: log10 IC50 of NNC(=O)CNC(=O)Cn1nc(Cc2ccccc2)c2ccccc2c1=O = ? 1.49

Notebook entry, MCF-7 cells assay: log10 IC50 of COC(=O)CNC(=O)CNC(=O)Cn1nc(Cc2ccccc2)c2ccccc2c1=O [Compound 11a] = ? 1.05

Notebook entry, MCF-7 cells assay: log10 IC50 of O=C(Cn1nc(Cc2ccccc2)c2ccccc2c1=O)NCc1ccccc1 = ? 1.27

Notebook entry, MCF-7 cells assay: log10 IC50 of C/C(=N\NC(=O)CNC(=O)Cn1nc(Cc2ccccc2)c2ccccc2c1=O)c1ccco1 [Compound 12c] = ? 0.15

----------
Tested on: MCF-7 cells
Assay Text: MTT cytotoxicity assay, MCF-7
Assay type: cell-based
Conditions Used: Homo sapiens, MCF7, 48 h, three independent trials, read-out: IC50 (μM) ± SD MCF-7
Experimental: MCF-7, HepG2 cancer cells and WISH normal cells were obtained from the National Cancer Institute in Cairo, Egypt, they were cultured in complete media of RPMI and DMEM, respectively at 5% carbon dioxide and 37 °C following standard tissue culture work. The cells were grown in “10% fetal bovine serum (FBS) and 1% penicillin–streptomycin” in 96-multiwell plate. […] Percentage of cell viability was calculated following this equation: 100-(ASample/AControl)X100 . […]
Observed Property: IC50 (µM)
Numbers only here, please. The scale is µM.

Endpoint output: IC50 of COC(=O)C(NC(=O)CNC(=O)Cn1nc(Cc2ccccc2)c2ccccc2c1=O)C(C)C (stereo not shown) [Compound 11d] . Value? 2.1

Endpoint output: IC50 of C#Cc1cccc(Nc2ncnc3cc(OCCOC)c(OCCOC)cc23)c1 [Erlotinib, reference compound] . Value? 1.32

Endpoint output: IC50 of C=CCNC(=O)Cn1nc(Cc2ccccc2)c2ccccc2c1=O [Compound 6f] . Value? 23.1

Now consider a different molecule.
Endpoint output: IC50 of O=C(Cn1nc(Cc2ccccc2)c2ccccc2c1=O)NCC(=O)N1CCOCC1 [Compound 10h] . Value? 16.4

----------
Assayed Target: EGFR (Homo sapiens, UniProt P00533)
Construct: purchased BPS Bioscience Corporation 40321
Sequence (P00533 25-1210): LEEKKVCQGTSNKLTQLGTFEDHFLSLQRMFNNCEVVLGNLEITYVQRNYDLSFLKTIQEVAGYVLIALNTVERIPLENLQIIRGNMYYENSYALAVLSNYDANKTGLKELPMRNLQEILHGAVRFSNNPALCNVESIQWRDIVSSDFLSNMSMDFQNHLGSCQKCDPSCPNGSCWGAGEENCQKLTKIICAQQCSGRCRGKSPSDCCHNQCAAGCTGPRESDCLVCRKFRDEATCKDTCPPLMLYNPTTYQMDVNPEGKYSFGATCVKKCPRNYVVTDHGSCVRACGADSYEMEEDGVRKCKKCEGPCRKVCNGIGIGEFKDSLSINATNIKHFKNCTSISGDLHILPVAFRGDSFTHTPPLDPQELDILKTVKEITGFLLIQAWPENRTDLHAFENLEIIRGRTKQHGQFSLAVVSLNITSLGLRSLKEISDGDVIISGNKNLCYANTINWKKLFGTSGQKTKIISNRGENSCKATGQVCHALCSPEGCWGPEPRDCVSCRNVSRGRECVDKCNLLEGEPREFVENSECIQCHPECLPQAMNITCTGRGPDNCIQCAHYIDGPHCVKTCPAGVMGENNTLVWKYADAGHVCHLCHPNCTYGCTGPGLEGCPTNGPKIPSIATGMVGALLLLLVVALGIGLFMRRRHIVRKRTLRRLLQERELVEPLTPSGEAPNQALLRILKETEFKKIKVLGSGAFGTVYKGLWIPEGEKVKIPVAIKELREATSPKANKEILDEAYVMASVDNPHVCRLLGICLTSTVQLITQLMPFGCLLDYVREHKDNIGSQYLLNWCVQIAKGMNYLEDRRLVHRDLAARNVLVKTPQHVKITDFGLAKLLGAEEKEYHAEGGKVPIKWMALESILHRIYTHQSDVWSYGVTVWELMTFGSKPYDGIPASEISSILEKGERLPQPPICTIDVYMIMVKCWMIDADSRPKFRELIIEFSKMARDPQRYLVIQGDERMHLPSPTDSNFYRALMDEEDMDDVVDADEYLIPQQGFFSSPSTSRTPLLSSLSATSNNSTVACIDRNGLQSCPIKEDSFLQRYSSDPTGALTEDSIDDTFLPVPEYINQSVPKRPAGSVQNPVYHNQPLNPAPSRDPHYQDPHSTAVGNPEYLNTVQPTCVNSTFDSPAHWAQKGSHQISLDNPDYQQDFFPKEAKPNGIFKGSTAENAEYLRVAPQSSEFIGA
Assay Text: EGFR enzyme inhibition (BPS Bioscience kit, ELISA)
Type: biochemical
Conditions Used: five concentrations, three independent replicates; read-out: EGFR IC50 [nM] ± SD
Observed Property: IC50 (nM)
Numbers only here, please. The scale is nM.

Endpoint output: IC50 of Nc1cc(=O)[nH]n1C(=O)CNC(=O)Cn1nc(Cc2ccccc2)c2ccccc2c1=O [Compound 12d] . Value? 21.4

Endpoint output: IC50 of COC(=O)C(NC(=O)CNC(=O)Cn1nc(Cc2ccccc2)c2ccccc2c1=O)C(C)C (stereo not drawn) [Compound 11d] . Value? 79.6

Next:
Endpoint output: IC50 of C/C(=N\NC(=O)CNC(=O)Cn1nc(Cc2ccccc2)c2ccccc2c1=O)c1ccco1 [Compound 12c] . Value? 65.4
